# Assay system: LH3 Y114A mutant (human, UniProt O60568 25-738, Y114A)
# Sequence (O60568 25-738 Y114A): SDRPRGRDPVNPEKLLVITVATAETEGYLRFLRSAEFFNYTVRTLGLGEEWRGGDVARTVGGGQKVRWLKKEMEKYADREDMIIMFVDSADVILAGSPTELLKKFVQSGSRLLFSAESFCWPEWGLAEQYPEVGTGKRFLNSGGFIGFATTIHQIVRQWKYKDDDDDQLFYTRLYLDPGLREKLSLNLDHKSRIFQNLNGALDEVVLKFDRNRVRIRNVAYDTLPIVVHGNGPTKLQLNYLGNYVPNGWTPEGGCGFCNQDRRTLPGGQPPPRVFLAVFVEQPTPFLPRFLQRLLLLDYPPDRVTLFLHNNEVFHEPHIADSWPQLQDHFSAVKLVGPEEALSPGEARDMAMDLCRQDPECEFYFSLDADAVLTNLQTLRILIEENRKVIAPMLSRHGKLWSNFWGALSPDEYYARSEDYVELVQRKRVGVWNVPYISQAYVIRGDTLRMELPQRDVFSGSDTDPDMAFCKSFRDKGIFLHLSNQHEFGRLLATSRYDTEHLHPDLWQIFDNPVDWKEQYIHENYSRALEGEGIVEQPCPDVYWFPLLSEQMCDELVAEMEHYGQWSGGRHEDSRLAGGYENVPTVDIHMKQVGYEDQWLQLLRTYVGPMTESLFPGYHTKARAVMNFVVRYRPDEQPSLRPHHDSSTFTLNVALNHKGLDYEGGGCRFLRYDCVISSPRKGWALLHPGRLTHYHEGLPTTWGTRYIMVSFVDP
# Test details: SPR
Readout name: Kd (mM)
Answer in mM, number only, no unit symbol.

Looking for the measured Kd of `ARGIKGIRGFS` , can you help? 6.3
